# assay.explanation: plasmodial surface anion channel blockers, osmotic lysis – cell-based, P. falciparum Indochina, OD700, 2 h, primary screen (AID 1155);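 further: lysis reports solute entry through the parasite surface anion channel PSAC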
# reported.conditions: P. falciparum Indochina infected erythrocytes, higher = more signal, called active from +8 up or from −8 down
Measured z-score accompanies every entry in the list below.
Number, no unit, nothing else.

Below: 4 molecules and their reported z-score.
C[n+]1ccc2ccc(O)cc2c1 :: 0.557
CC(C)OC(=O)C1=CCC(c2cccc(Cl)c2)O1 (stereo not given) :: 6.53
COc1ccc(CCNC(=O)[C@@]2(C)c3ccccc3C(=O)N(Cc3ccccc3)[C@H]2c2ccc(CO)cc2)cc1 :: 0.219
Cc1ccc(S[C@]2(C(=O)NCc3ccccc3)CC(=O)N(Cc3cc(C(F)(F)F)cc(C(F)(F)F)c3)[C@@H]2c2ccc(CO)cc2)cc1 :: 0.818

Would you kindly look at the next entry?
The reported value for COC(=O)[C@@]1(Cc2ccc(F)cc2)[C@H]2c3cc(C(=O)N4CCCC4)n(Cc4ccc(Cl)c(C(F)(F)F)c4)c3C[C@H]2CN1C(=O)c1ccccc1 in terms of z-score is 0.895
